Measured pIC50 by item
target: soluble HLA-B*0702 (Homo sapiens, UniProt P01889)
Please treat pIC50 as minus the base-10 logarithm of the molar concentration.

Known results for molecules:
[[record]]
structurestring = "CC(C)C[C@H](NC(=O)[C@@H]1CCCN1C(=O)[C@H](Cc1ccccc1)NC(=O)[C@H](CCCNC(=N)N)NC(=O)[C@@H](NC(=O)CNC(=O)[C@@H]1CCCN1C(=O)CNC(=O)[C@@H]1CCCN1C(=O)[C@@H](N)[C@@H](C)O)[C@@H](C)O)C(=O)O"
measure = "pIC50"
measuredvalue = 5.54

[[record]]
structurestring = "CC[C@H](C)[C@H](NC(=O)[C@H](CCCNC(=N)N)NC(=O)[C@H](CCCCN)NC(=O)[C@H](CCCNC(=N)N)NC(=O)[C@@H](NC(=O)[C@H](CC(N)=O)NC(=O)[C@H](CC(N)=O)NC(=O)[C@H](CC(N)=O)NC(=O)[C@@H]1CCCN1C(=O)[C@@H](N)CCCNC(=N)N)[C@@H](C)O)C(=O)O"
measure = "pIC50"
measuredvalue = 4.68

[[record]]
structurestring = "CC(C)C[C@H](NC(=O)[C@@H](NC(=O)[C@H](CCCNC(=N)N)NC(=O)[C@@H]1CCCN1C(=O)[C@@H](N)CO)[C@@H](C)O)C(=O)N[C@@H](CC(N)=O)C(=O)N[C@@H](C)C(=O)N[C@@H](Cc1c[nH]c2ccccc12)C(=O)N[C@H](C(=O)O)C(C)C"
measure = "pIC50"
measuredvalue = 4.82

[[record]]
structurestring = "CC[C@H](C)[C@H](NC(=O)CNC(=O)[C@@H]1CCCN1C(=O)CNC(=O)[C@@H]1CCCN1C(=O)[C@@H](N)[C@@H](C)O)C(=O)N[C@@H](CCCNC(=N)N)C(=O)N[C@@H](Cc1ccc(O)cc1)C(=O)N1CCC[C@H]1C(=O)N[C@H](C(=O)O)C(C)C"
measure = "pIC50"
measuredvalue = 5.26

[[record]]
structurestring = "CC(C)C[C@H](NC(=O)[C@@H]1CCCN1C(=O)[C@H](Cc1ccccc1)NC(=O)[C@H](CCCNC(=N)N)NC(=O)[C@@H]1CCCN1C(=O)CNC(=O)[C@@H]1CCCN1C(=O)CNC(=O)[C@@H]1CCCN1C(=O)[C@@H](N)[C@@H](C)O)C(=O)O"
measure = "pIC50"
measuredvalue = 5.34


# pIC50 measured on soluble HLA-B*0702 (Homo sapiens, UniProt P01889) for item "CC[C@H](C)[C@H](NC(=O)CNC(=O)[C@@H]1CCCN1C(=O)CNC(=O)[C@@H]1CCCN1C(=O)[C@@H](N)[C@@H](C)O)C(=O)N[C@@H](CCCNC(=N)N)C(=O)N[C@@H](Cc1ccccc1)C(=O)N1CCC[C@H]1C(=O)N[C@@H](CC(C)C)C(=O)O" = 5.60

With soluble HLA-B*0702 (Homo sapiens, UniProt P01889) as the test system, "CC(C)C[C@H](NC(=O)[C@@H]1CCCN1C(=O)[C@@H](NC(=O)[C@H](CCC(N)=O)NC(=O)[C@@H]1CCCN1C(=O)[C@H](CCCNC(=N)N)NC(=O)[C@@H](NC(=O)[C@@H]1CCCN1C(=O)[C@@H](N)Cc1ccccc1)C(C)C)C(C)C)C(=O)O" showed pIC50 of 5.17

# "CSCC[C@H](NC(=O)[C@@H]1CCCN1C(=O)[C@@H](N)CCCNC(=N)N)C(=O)N[C@H](C(=O)N[C@@H](Cc1ccc(O)cc1)C(=O)N[C@@H](CCCCN)C(=O)N[C@@H](C)C(=O)N[C@@H](C)C(=O)N[C@@H](CC(C)C)C(=O)O)[C@@H](C)O" with soluble HLA-B*0702 (Homo sapiens, UniProt P01889): pIC50 is 4.96

Field pIC50 (soluble HLA-B*0702 (Homo sapiens, UniProt P01889)), entry "CC(C)C[C@H](NC(=O)[C@@H]1CCCN1C(=O)[C@H](Cc1ccc(O)cc1)NC(=O)[C@H](CCCNC(=N)N)NC(=O)[C@@H](NC(=O)CNC(=O)[C@@H]1CCCN1C(=O)CNC(=O)[C@@H]1CCCN1C(=O)[C@@H](N)[C@@H](C)O)C(C)C)C(=O)O" : 5.36

Origin of the recorded values: paper PMC4110927
